test-name: Two-component Cys-Lys stapling: Cys S-alkynylation by EBX-pentafluorophenyl ester reagents 9a-9d (1.1 equiv), then intramolecular Lys aminolysis of the PFP ester; DIPEA (2.5 equiv)
measurement-parameters: the molecule shown is the open-chain precursor; 27-membered ring; DMF; 1.0 mM; 37.0 °C; 0.5 h; scale: % relative absorbance at 210 nm vs linear peptide standard
measured-parameter: ring closure, conversion by HPLC

{"substance": "Ac-YGGEAARK(ivDde)AC(S-C≡C-C6H4-4-CO-OPfp)AREKAARE-NH2", "numeric-result": 117}
{"substance": "Ac-YGGEAARKAC(S-C≡C-C6H4-4-CO-OPfp)AREKAARE-NH2", "numeric-result": 92}
{"substance": "Ac-ENPEC(S-C≡C-C6H4-4-CO-OPfp)ILDKHVQRVM-NH2", "numeric-result": 62}
{"substance": "Ac-YGGEKAREAC(S-C≡C-C6H4-4-CO-OPfp)AREKAARE-NH2", "numeric-result": 91}
{"substance": "Ac-YGGEAAREAC(S-C≡C-C6H4-4-CO-OPfp)AREKAAREK-NH2", "numeric-result": 95}
{"substance": "Ac-YGGEAAREAC(S-C≡C-C6H4-4-CO-OPfp)AREKAARE-NH2", "numeric-result": 114}
